Measured EC50 values are reported for all entries that follow.
Molecular target: Heat shock factor protein 1 (Mus musculus)
Sequence (P38532 whole entry): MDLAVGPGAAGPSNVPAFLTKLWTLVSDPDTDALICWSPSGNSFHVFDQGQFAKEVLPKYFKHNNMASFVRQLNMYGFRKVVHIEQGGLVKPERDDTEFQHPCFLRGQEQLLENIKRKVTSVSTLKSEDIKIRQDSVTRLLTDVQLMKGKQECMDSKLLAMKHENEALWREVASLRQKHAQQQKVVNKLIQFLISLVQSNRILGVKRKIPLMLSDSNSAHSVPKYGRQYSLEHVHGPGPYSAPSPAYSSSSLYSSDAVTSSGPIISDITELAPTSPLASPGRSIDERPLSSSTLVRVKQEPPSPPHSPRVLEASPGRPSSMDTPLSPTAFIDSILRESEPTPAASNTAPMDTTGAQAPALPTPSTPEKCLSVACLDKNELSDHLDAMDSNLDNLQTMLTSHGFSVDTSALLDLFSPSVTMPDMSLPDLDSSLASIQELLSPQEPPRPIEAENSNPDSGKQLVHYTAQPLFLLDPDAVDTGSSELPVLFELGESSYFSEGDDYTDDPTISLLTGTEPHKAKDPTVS
Assay: decrease of HSF1-responsive luciferase luminescence – cell-based, NIH3T3, dose retest, confirmation (AID 2382);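 note: NIH3T3 fibroblasts with HSF1-driven luciferase reporter stressed by proteasome inhibitor MG132; luminescence from HSF1-driven luciferase expression after 8 hours of MG132 stress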
Format: functional
METRIC_NAME: EC50

[[record]]
compound = "Cc1cccc(C)c1NC(=O)c1cccnc1"
endpoint_value = "> 195 µM (not active)"

[[record]]
compound = "Cc1cc(C)nc(NNC2=CC(=[N+]3CCCCC3)CC(C)(C)C2)n1"
endpoint_value = "> 195 µM (not active)"

[[record]]
compound = "Cc1oc(C(=O)O)cc1COc1ccc2c3c(c(=O)oc2c1C)CCC3"
endpoint_value = "> 195 µM (not active)"

[[record]]
compound = "COc1ccc2c(COC(=O)CCS(=O)(=O)c3ccc(C)cc3)cc(=O)oc2c1"
endpoint_value = "> 195 µM (not active)"

[[record]]
compound = "COc1ccc(/N=C2/SC(C(=O)N3CCN(c4ccccc4)CC3)CC(=O)N2C)cc1 (stereo unspecified)"
endpoint_value = "> 195 µM (not active)"

[[record]]
compound = "CCOc1ccc(/C=N/NC(=O)C(O)c2ccccc2)c(O)c1 (stereo unspecified)"
endpoint_value = "> 195 µM (not active)"

[[record]]
compound = "CCOc1ccccc1N1CCN(CC(=O)NC(C)c2ccccc2)CC1 (stereo unspecified)"
endpoint_value = "> 195 µM (not active)"

[[record]]
compound = "Cn1nc(N)c2c(-c3ccccc3)c(C#N)c(N)nc21"
endpoint_value = "> 195 µM (not active)"

[[record]]
compound = "CCOC(=O)c1c(NC(=O)CN2CCCCC2)sc2c1CCC(C=O)=C2Cl"
endpoint_value = "> 195 µM (not active)"

[[record]]
compound = "COc1ccc2oc(=O)c(N3C(=O)c4ccccc4C3=O)cc2c1"
endpoint_value = "> 195 µM (not active)"

[[record]]
compound = "O=C(CSc1nnc(CNC(=O)c2cccs2)o1)NCc1ccc(F)cc1"
endpoint_value = "> 195 µM (not active)"


The measured values listed here are drawn from ChEMBL document CHEMBL1201862.
